Let's look at some pKi data for 72 kDa type IV collagenase (Homo sapiens, UniProt P08253) that I collected from the literature.
Quick note: pKi values are minus log10 of concentrations in mol/L.

Field: example entries. Status: answers known.
| Compound | Reported Result |
| --- | --- |
| O=C(C[C@@H](CCCc1ccccc1)C(=O)N[C@@H](CC1CCCCC1)C(=O)NCCc1ccc(S(=O)(=O)O)cc1)NO | 9.23 |
| O=C(CN1CCNc2ccccc2S1(=O)=O)NO | 5.72 |
| O=C(C[C@@H](CCCc1ccc(Cl)cc1)C(=O)N[C@@H](CC1CCCCC1)C(=O)NCCC(=O)NCCNS(=O)(=O)N1CCOCC1)NO | 11.00 |
| O=C(C[C@H](CSc1ccccc1)C(=O)O)c1ccc(-c2ccc(Cl)cc2)cc1 | 7.96 |
| C[C@H](C(=O)NO)N1CC[C@@](C)(c2ccc(OCc3cccc([N+](=O)[O-])c3)cc2)C1=O | 7.42 |
| CC(C)C[C@H](CC(=O)NO)C(=O)N[C@@H]1c2ccccc2C[C@@H]1O | 5.81 |

We now examine a further compound.
Request body: readout pKi, system 72 kDa type IV collagenase (Homo sapiens, UniProt P08253), query COc1ccc(S(=O)(=O)C(CCCCc2ccccc2)C(C)C(=O)NO)cc1 (stereo not drawn) . Return the value.
7.22

----------
Let's look at some Ki data for 72 kDa type IV collagenase (Homo sapiens, UniProt P08253) that I collected from the literature.
Label scheme, based on Ki: label 0: < 40 nM; label 1: ≥ 40 nM and < 600 nM; label 2: ≥ 600 nM

Answered cases to consult:
| Compound | Assigned Label |
| --- | --- |
| COc1ccc(C(=O)NCCCOc2ccc(S(=O)(=O)C3(C(=O)NO)CCOCC3)cc2)cc1 | label 1 |
| NC(=O)C(Cc1c[nH]c2ccccc12)NC(=O)C(CSc1ccccc1OC(F)(F)F)CP(=O)(O)C(Cc1ccccc1)NC(=O)OCc1ccccc1 (stereo not drawn) | label 2 |
| CNC(=O)[C@H](Cc1c[nH]c2ccccc12)NC(=O)[C@@H](CC(=O)O)CC(C)C | label 1 |
| CCCC[C@@H](C[C@@H](CCc1ccc(-c2ccc(-c3nnn[nH]3)cc2)cc1)C(=O)N[C@H](C(=O)NC)C(C)(C)C)C(=O)O | label 2 |
| Cc1cc(COc2ccc(C(=O)NCc3n[nH]c(=O)[nH]3)cc2)c2ccccc2n1 | label 2 |

# classify by Ki band: CCCc1ccc(CC[C@H](N[C@H](CCCCN2C(=O)c3ccccc3C2=O)C(=O)O)C(=O)N[C@@H](CC(C)C)C(=O)Nc2ccccc2)cc1
label 0

# classify by Ki band: Cc1cc(COc2ccc(N3CC[C@H]([C@@H](C)C(=O)NO)C3=O)cc2)c2ccccc2n1
label 2

# classify by Ki band: Cc1nc2ccccc2n1Cc1ccc(C(=O)N[C@@H]2CN(C(=O)OC(C)(C)C)C[C@@H]2C(=O)NO)cc1
label 2

# classify by Ki band: O=S(=O)(CCC(S)CS)c1ccc(Oc2ccccc2)cc1 (stereo not drawn)
label 1

# classify by Ki band: CC(=O)N1CC[C@H](C(=O)Nc2ccc(COc3ccnc4cc(C(F)(F)F)ccc34)cc2)[C@@H](C(=O)NO)C1
label 2

# classify by Ki band: CCCC[C@@H](C[C@@H](CCc1ccc(-c2ccc(C#N)cc2)cc1)C(=O)N[C@H](C(=O)NC)C(C)(C)C)C(=O)O
label 0

# classify by Ki band: O=C(C[C@@H](CCCc1ccccc1)C(=O)N[C@@H](CC1CCCCC1)C(=O)NCCc1ccccc1)NO
label 0

# classify by Ki band: Cc1cc(COc2ccc(C(=O)N[C@@H]3CNCC[C@@H]3c3n[nH]c(=S)[nH]3)cc2)c2ccccc2n1 (relative stereo)
label 2

# classify by Ki band: CCCC[C@@H](C[C@@H](CCc1ccc(-c2cccc(F)c2)cc1)C(=O)N[C@H](C(=O)NC)C(C)(C)C)C(=O)O
label 1

# classify by Ki band: CN1C(=O)N(C[C@H](C(=O)NO)[C@@H](CC2CCCC2)C(=O)N2CCCCC2)C(=O)C1(C)C
label 1

# classify by Ki band: NS(=O)(=O)c1ccc(CCNC(=O)CCNC(=O)[C@H](CC2CCCCC2)NC(=O)[C@H](CCCc2ccc(Cl)cc2)CC(=O)NO)cc1
label 0

# classify by Ki band: C[C@H](C(=O)NO)N1CCNc2cc(OCc3cc(Cl)cc(Cl)c3)ccc2S1(=O)=O
label 1
